Molecular target: Prostaglandin G/H synthase 1 (Rattus norvegicus); also: assay procedure not described here
Sequence (Q63921 whole entry): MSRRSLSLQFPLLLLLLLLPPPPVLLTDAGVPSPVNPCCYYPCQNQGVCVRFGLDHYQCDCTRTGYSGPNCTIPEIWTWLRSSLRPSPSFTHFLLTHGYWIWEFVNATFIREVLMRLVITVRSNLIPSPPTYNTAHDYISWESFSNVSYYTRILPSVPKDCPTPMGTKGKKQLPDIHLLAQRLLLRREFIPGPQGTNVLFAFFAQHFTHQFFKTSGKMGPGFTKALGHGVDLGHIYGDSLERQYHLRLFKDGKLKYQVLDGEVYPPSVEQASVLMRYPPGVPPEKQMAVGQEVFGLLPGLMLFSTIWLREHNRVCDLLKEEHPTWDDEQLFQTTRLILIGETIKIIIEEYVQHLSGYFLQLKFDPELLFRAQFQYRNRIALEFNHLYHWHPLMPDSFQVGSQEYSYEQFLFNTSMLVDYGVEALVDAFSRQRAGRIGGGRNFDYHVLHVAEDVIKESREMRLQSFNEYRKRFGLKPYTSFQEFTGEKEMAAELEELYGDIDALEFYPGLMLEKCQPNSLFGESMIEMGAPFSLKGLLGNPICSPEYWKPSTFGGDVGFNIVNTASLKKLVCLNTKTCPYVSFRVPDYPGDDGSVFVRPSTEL
Format: functional
AC50 for assorted molecules

Worked examples follow.
COC(=O)N[C@@H](C)CNc1nccc(-c2cn(C(C)C)nc2-c2cc(Cl)cc(NS(C)(=O)=O)c2F)n1    > 30 µM
CCCOC(C(=O)OC1CCN(C)CC1)(c1ccccc1)c1ccccc1    > 30 µM
CC1(C)O[C@@H]2[C@@H](CO[C@@]3(COS(N)(=O)=O)OC(C)(C)O[C@@H]23)O1 [TOPIRAMATE]    > 30 µM
O=C(O)c1ccccc1Nc1cccc(C(F)(F)F)c1    18.3 µM

## Task Give a short answer stating reported AC50 for C#C[C@]1(O)CC[C@H]2[C@@H]3CCC4=CC(=O)CCC4=C3C=C[C@@]21CC .
## Result > 30 µM

## Task Give a short answer stating reported AC50 for CCN(CC)C(=O)C1CN2CCc3cc(OC)c(OC)cc3C2CC1OC(C)=O (stereo not drawn) [BENZQUINAMIDE] .
## Result 2.72 µM

## Task Give a short answer stating reported AC50 for Nc1nc(F)nc2c1ncn2[C@@H]1O[C@H](COP(=O)(O)O)[C@@H](O)[C@@H]1O [FLUDARABINE PHOSPHATE] .
## Result > 30 µM

## Task Give a short answer stating reported AC50 for CC(C)OC(=O)C(C(=O)OC(C)C)=C1SC=CS1 [MALOTILATE] .
## Result > 30 µM

---

Target: 5-hydroxytryptamine receptor 1A (Homo sapiens, UniProt P08908); also: assay procedure not described here
Sequence (P08908 whole entry): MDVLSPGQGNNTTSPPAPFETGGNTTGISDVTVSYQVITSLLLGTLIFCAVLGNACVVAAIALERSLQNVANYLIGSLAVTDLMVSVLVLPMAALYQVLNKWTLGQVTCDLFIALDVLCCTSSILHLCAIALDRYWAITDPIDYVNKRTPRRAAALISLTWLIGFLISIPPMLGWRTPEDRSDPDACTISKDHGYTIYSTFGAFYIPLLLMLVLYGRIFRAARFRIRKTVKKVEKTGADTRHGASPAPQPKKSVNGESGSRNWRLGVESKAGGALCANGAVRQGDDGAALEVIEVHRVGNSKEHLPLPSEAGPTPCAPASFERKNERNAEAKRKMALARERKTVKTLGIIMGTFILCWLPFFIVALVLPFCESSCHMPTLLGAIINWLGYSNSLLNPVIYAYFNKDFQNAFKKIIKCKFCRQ
Format: functional, cell-based
AC50 for assorted compounds

Worked examples follow.
CCCC[C@H](C)C[C@H](O)/C=C/[C@H]1[C@H](O)CC(=O)[C@@H]1CCCC/C=C/C(=O)O [LIMAPROST]    > 30 µM
CC(C)N(CCCCOCC(=O)NS(C)(=O)=O)c1cnc(-c2ccccc2)c(-c2ccccc2)n1 [SELEXIPAG]    24 µM

## Task Give a short answer stating reported AC50 for CCC(=O)OCC(=O)[C@@]1(OC(=O)CC)[C@@H](C)C[C@H]2[C@@H]3CCC4=CC(=O)C=C[C@]4(C)[C@@]3(F)[C@@H](O)C[C@@]21C [BETAMETHASONE DIPROPIONATE] .
## Result > 30 µM

## Task Give a short answer stating reported AC50 for CO/N=C(\C(=O)N[C@@H]1C(=O)N2C(C(=O)O)=C(COC(N)=O)CS[C@H]12)c1ccco1 [CEFUROXIME] .
## Result > 30 µM

---

# AC50 measurements, system: Alpha-2A adrenergic receptor (Homo sapiens, UniProt P08913); also: assay procedure not described here
# Sequence (P08913 whole entry): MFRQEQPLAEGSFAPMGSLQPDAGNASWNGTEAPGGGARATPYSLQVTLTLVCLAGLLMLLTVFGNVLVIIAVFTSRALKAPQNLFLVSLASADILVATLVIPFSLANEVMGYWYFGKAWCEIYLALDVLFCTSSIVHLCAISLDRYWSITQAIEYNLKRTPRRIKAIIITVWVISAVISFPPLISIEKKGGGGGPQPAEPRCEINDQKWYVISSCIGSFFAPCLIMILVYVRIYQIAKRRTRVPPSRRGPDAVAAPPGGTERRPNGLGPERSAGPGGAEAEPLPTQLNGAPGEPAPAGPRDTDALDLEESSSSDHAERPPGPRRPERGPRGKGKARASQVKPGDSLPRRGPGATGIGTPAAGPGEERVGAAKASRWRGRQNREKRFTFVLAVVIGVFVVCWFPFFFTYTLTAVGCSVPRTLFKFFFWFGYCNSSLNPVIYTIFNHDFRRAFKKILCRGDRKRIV

Worked examples follow.
CC(C1=C(CCN(C)C)Cc2ccccc21)c1ccccn1 (centres undefined)    15.1 µM
CC1(C)O[C@@H]2[C@@H](CO[C@@]3(COS(N)(=O)=O)OC(C)(C)O[C@@H]23)O1 [TOPIRAMATE]    > 30 µM
CNC(=O)Oc1ccc2c(c1)[C@]1(C)CCN(C)[C@@H]1N2C    > 30 µM
CC(=O)OCC[N+](C)(C)C    > 30 µM
C[C@@H](O)[C@H]1C(=O)N2C(C(=O)O)=C([C@H]3CCCO3)S[C@H]12    > 30 µM
CN(C)C(=O)c1nc(CNC(=O)CN)n(-c2ccc(Cl)cc2C(=O)c2ccccc2Cl)n1    > 30 µM

## Task Fill in: AC50 on Alpha-2A adrenergic receptor (Homo sapiens, UniProt P08913), entry CCOC(=O)[C@H](CCc1ccccc1)N[C@@H](C)C(=O)N1Cc2cc(OC)c(OC)cc2C[C@H]1C(=O)O
## Result > 30 µM

## Task Fill in: AC50 on Alpha-2A adrenergic receptor (Homo sapiens, UniProt P08913), entry CC(C)COc1ccc(CNC(=O)N(Cc2ccc(F)cc2)C2CCN(C)CC2)cc1
## Result > 30 µM

## Task Fill in: AC50 on Alpha-2A adrenergic receptor (Homo sapiens, UniProt P08913), entry NC(=O)NCCC[C@H](N)C(=O)O
## Result > 30 µM

---

Molecular target: Alpha-1A adrenergic receptor (Homo sapiens, UniProt P35348); also: assay procedure not described here
Sequence (P35348 whole entry): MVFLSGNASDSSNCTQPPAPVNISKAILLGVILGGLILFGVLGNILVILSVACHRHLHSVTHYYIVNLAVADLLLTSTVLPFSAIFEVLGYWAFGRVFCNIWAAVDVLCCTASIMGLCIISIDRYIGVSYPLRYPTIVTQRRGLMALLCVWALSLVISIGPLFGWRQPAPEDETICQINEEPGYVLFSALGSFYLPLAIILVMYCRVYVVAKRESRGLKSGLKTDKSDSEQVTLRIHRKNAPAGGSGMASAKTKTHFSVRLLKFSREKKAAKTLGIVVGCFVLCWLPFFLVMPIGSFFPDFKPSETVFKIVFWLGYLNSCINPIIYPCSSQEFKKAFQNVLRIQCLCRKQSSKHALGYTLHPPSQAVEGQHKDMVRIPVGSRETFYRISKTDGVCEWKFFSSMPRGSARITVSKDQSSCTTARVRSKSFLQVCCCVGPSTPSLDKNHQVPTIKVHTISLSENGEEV
Format: functional, cell-based
Measured endpoint: AC50

Worked examples follow.
CN(C)CCC(c1ccccc1)c1ccccn1 (stereo unspecified) [PHENIRAMINE]    > 30 µM
CCSc1ccc2c(c1)N(CCCN1CCN(C)CC1)c1ccccc1S2 [THIETHYLPERAZINE]    24.7 µM
CC(=O)O[C@H]1C[C@H](O[C@H]2[C@@H](O)C[C@H](O[C@H]3[C@@H](O)C[C@H](O[C@H]4CC[C@@]5(C)[C@H](CC[C@@H]6[C@@H]5C[C@@H](O)[C@]5(C)[C@@H](C7=CC(=O)OC7)CC[C@]65O)C4)O[C@@H]3C)O[C@@H]2C)O[C@H](C)[C@H]1O[C@@H]1O[C@H](CO)[C@@H](O)[C@H](O)[C@H]1O [LANATOSIDE C]    > 30 µM
CN(C)CCCN1C(=O)c2cc([N+](=O)[O-])ccc2Oc2ccccc21    > 30 µM
CC[C@H]1OC(=O)[C@H](C)[C@@H](O[C@H]2C[C@@](C)(OC)[C@@H](O)[C@H](C)O2)[C@H](C)[C@@H](O[C@@H]2O[C@H](C)C[C@H](N(C)C)[C@H]2O)[C@](C)(OC)C[C@@H](C)C(=O)[C@H](C)[C@@H](O)[C@]1(C)O [CLARITHROMYCIN]    > 30 µM

Please turn your attention to the following entry.
## Task Give a short answer stating reported AC50 for C=C1c2c(Cl)ccc(O)c2C(=O)C2=C(O)[C@]3(O)C(=O)C(C(N)=O)=C(O)[C@@H](N(C)C)[C@@H]3[C@@H](O)[C@H]12 [MECLOCYCLINE] .
## Result > 30 µM

---

Target: 5-hydroxytryptamine receptor 2A (Homo sapiens, UniProt P28223); also: assay procedure not described here
Sequence (P28223 whole entry): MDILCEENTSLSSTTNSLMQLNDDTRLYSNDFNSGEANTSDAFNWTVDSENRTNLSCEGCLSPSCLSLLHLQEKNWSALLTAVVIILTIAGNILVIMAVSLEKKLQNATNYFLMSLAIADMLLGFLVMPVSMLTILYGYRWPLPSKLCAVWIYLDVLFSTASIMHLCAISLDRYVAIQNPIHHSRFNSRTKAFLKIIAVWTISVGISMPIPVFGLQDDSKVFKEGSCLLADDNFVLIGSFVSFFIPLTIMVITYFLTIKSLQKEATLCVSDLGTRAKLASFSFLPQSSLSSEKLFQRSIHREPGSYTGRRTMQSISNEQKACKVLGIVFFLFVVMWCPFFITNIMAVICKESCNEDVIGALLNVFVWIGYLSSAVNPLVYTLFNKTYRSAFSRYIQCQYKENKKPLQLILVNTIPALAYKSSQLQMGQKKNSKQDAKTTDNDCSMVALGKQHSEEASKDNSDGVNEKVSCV
Assay type: functional, cell-based
Measured endpoint: AC50

Nc1nc(F)nc2c1ncn2[C@@H]1O[C@H](COP(=O)(O)O)[C@@H](O)[C@@H]1O [FLUDARABINE PHOSPHATE]    > 30 µM
NC(=O)CCC/N=C(\c1ccc(Cl)cc1)c1cc(F)ccc1O [PROGABIDE]    > 10 µM
CCOc1cc(CC(=O)N[C@@H](CC(C)C)c2ccccc2N2CCCCC2)ccc1C(=O)O [REPAGLINIDE]    > 30 µM
[H]/N=C(\N/C(=N/[H])NCCCCCCNC(=N)NC(=N)Nc1ccc(Cl)cc1)Nc1ccc(Cl)cc1    > 10 µM
CC(=O)O[C@H]1C[C@@H]2CC[C@@H]3[C@H](CC[C@@]4(C)[C@H]3C[C@H]([N+]3(C)CCCCC3)[C@@H]4OC(C)=O)[C@@]2(C)C[C@@H]1[N+]1(C)CCCCC1    > 10 µM
CC(C)=CCOc1ccc(/C=C/C(=O)c2ccc(OCC=C(C)C)cc2OCC(=O)O)cc1    > 30 µM
CCCC(C)(COC(N)=O)COC(=O)NC(C)C (centres undefined)    > 30 µM
COc1cccc(N(C)C(=S)Oc2ccc3c(c2)CCCC3)n1 [LIRANAFTATE]    > 30 µM
O=C(Nc1c(Cl)cncc1Cl)c1ccc(OC(F)F)c(OCC2CC2)c1    > 30 µM
Cc1ccc2c(-c3ccccc3)nc(=O)n(C(C)C)c2c1    > 30 µM

## Task Give a short answer stating reported AC50 for O=C1CN2Cc3c(ccc(Cl)c3Cl)N=C2N1 [ANAGRELIDE] .
## Result > 30 µM

## Task Give a short answer stating reported AC50 for COc1cc2c(Nc3ccc(Br)cc3F)ncnc2cc1OCC1CCN(C)CC1 .
## Result > 30 µM

## Task Give a short answer stating reported AC50 for CC(=O)c1ccc2c(c1)N(CCCN1CCC(CCO)CC1)c1ccccc1S2 .
## Result > 30 µM

## Task Give a short answer stating reported AC50 for CC(=N)N1CC[C@H](SC2=C(C(=O)O)N3C(=O)[C@H]([C@@H](C)O)[C@H]3C2)C1 .
## Result > 300 µM

## Task Give a short answer stating reported AC50 for CN1CCN(CCCN2c3ccccc3Sc3ccc(S(=O)(=O)N(C)C)cc32)CC1 .
## Result > 30 µM

---

# AC50 measurements, system: Vasopressin V2 receptor (Homo sapiens); also: assay procedure not described here
# Sequence (P30518 whole entry): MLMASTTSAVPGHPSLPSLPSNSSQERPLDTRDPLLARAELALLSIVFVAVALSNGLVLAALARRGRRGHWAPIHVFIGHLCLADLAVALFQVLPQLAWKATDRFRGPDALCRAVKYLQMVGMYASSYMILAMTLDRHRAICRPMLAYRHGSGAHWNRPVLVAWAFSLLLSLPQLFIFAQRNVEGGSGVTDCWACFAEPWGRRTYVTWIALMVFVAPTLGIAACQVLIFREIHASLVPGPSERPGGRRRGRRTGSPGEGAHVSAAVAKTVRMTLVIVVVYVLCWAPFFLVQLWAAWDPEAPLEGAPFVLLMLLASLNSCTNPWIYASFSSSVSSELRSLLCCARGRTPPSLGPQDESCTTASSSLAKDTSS

CCCCCCOC(=O)CCC(=O)CN [HEXAMINOLEVULINATE]    > 30 µM
COC(=O)N[C@@H](C)CNc1nccc(-c2cn(C(C)C)nc2-c2cc(Cl)cc(NS(C)(=O)=O)c2F)n1    > 30 µM

## Task Fill in: AC50 on Vasopressin V2 receptor (Homo sapiens), entry OCCN1CCN(CC/C=C2/c3ccccc3Sc3ccc(Cl)cc32)CC1
## Result > 10 µM

## Task Fill in: AC50 on Vasopressin V2 receptor (Homo sapiens), entry CN1C[C@H](C(=O)N[C@]2(C)O[C@@]3(O)[C@@H]4CCCN4C(=O)[C@H](Cc4ccccc4)N3C2=O)C[C@@H]2c3cccc4[nH]cc(c34)C[C@H]21 [DIHYDROERGOTAMINE]
## Result > 30 µM

## Task Fill in: AC50 on Vasopressin V2 receptor (Homo sapiens), entry C#C[C@]1(O)CC[C@H]2[C@@H]3CCC4=CC(=O)CCC4=C3C=C[C@@]21CC
## Result > 30 µM

## Task Fill in: AC50 on Vasopressin V2 receptor (Homo sapiens), entry C[C@H]1C[C@H]2[C@@H]3CCC4=CC(=O)C=C[C@]4(C)[C@@]3(Cl)[C@@H](O)C[C@]2(C)[C@@]1(O)C(=O)CO
## Result > 30 µM

## Task Fill in: AC50 on Vasopressin V2 receptor (Homo sapiens), entry CN1c2ccccc2C(NCCCCCCC(=O)O)c2ccc(Cl)cc2S1(=O)=O (stereo not drawn)
## Result > 30 µM

## Task Fill in: AC50 on Vasopressin V2 receptor (Homo sapiens), entry NC(=O)c1ncn([C@@H]2O[C@H](CO)[C@@H](O)[C@H]2O)n1
## Result > 10 µM
